- Test system: K24384-001-R-PDC complex spheroids, viability;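 further: spheroids exposed to compounds for seven days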
- assay-name: Anticancer human tumor K24384-001-R-PDC patient-derived pancreatic adenocarcinoma cell line growth inhibition [GQUAD]; active means viability on the fitted dose curve at most 10% of control; inactive means the rest
- test-context: second compound 1 µM; first compound 10 µM
// classify into active, inactive

COc1cccc2c1C(=O)c1c(O)c3c(c(O)c1C2=O)CC(O)(C(=O)CO)CC3OC1CC(N)C(O)C(C)O1 (configuration not stated) + Cc1[nH]c2ccc(F)cc2c1-c1nc2c3cccnc3c3ncccc3c2[nH]1 :: active
C#Cc1c(F)ccc2cc(O)cc(-c3ncc4c(N5CC6CCC(C5)N6)nc(OCC56CCCN5CC(F)C6)nc4c3F)c12 (configuration not stated) + Cc1cnc(CNC(=O)c2c(=O)c3ccc(N4CCCN(C)CC4)nc3n3c2sc2ccccc23)cn1 :: inactive
C#Cc1c(F)ccc2cc(O)cc(-c3ncc4c(N5CC6CCC(C5)N6)nc(OCC56CCCN5CC(F)C6)nc4c3F)c12 (configuration not stated) + CN(C)c1ccc(Nc2c3ccc(NC(=O)CCN4CCCC4)cc3nc3cc(NC(=O)CCN4CCCC4)ccc23)cc1 :: inactive
C=CC(=O)N1CCN(c2nc(=O)n(-c3c(C)ccnc3C(C)C)c3nc(-c4c(O)cccc4F)c(F)cc23)C(C)C1 (configuration not stated) + Cc1[nH]c2ccc(F)cc2c1-c1nc2c3cccnc3c3ncccc3c2[nH]1 :: inactive
CCCS(=O)(=O)Nc1ccc(F)c(C(=O)c2c[nH]c3ncc(-c4ccc(Cl)cc4)cc23)c1F + Cc1[nH]c2ccc(F)cc2c1-c1nc2c3cccnc3c3ncccc3c2[nH]1 :: inactive

Query molecule follows.
Look up the recorded call for CC(C)n1c(=O)n(C)c2cnc3cc(F)c(-c4ccc(OCCCN5CCCCC5)nc4)cc3c21 + Cc1cnc(CNC(=O)c2c(=O)c3ccc(N4CCCN(C)CC4)nc3n3c2sc2ccccc23)cn1 in this test.
inactive
